These data points were gathered from patent US7407940B2.

Answer each item with its documented MIC, lipid length SAR.
- System: Salmonella typhimurium 14028S
- ASSAY_NAME: MIC, broth microdilution, S. typhimurium
- Type: cell-based
- Set-up: unit not given here
- EXPERIMENTAL_CONDITIONS: S.typhimurium
- Description: MICs (minimal inhibitory concentrations) were determined for the hexapeptides of interest using a slightly modified version of the NCCLS (National Committee for Clinical Laboratory Standards) broth microdilution method as described previously (Steinberg et al., AAC 41: 1738, 1997). Briefly, antimicrobial agents were prepared as 10× concentrates in the most appropriate solvent. For the hexapeptide, 0.01% acetic acid containing 0.2% bovine serum albumin as a carrier protein was used. […]
The star is where a group is joined. Oleoyl = CCCCCCCC/C=C\CCCCCCCC(=O)*; Stearoyl = CCCCCCCCCCCCCCCCCC(=O)*; Tridecanoyl = CCCCCCCCCCCCC(=O)*; Myristoyl = CCCCCCCCCCCCCC(=O)*; Undecanoyl = CCCCCCCCCCC(=O)*; Nonanoyl = CCCCCCCCC(=O)*; Heptanoyl = CCCCCCC(=O)*

Example entries and their recorded answers appear below.
Hep-KFKWPW-NH2 (Heptanoyl-KFKWPW-NH2; SMILES CCCCCCC(=O)N[C@@H](CCCCN)C(=O)N[C@@H](Cc1ccccc1)C(=O)N[C@@H](CCCCN)C(=O)N[C@@H](Cc1c[nH]c2ccccc12)C(=O)N1CCC[C@H]1C(=O)N[C@@H](Cc1c[nH]c2ccccc12)C(N)=O) [SEQ ID NO: 69] :: 128
OIe-KFKWPW-NH2 (Oleoyl-KFKWPW-NH2; SMILES CCCCCCCC/C=C\CCCCCCCC(=O)N[C@@H](CCCCN)C(=O)N[C@@H](Cc1ccccc1)C(=O)N[C@@H](CCCCN)C(=O)N[C@@H](Cc1c[nH]c2ccccc12)C(=O)N1CCC[C@H]1C(=O)N[C@@H](Cc1c[nH]c2ccccc12)C(N)=O) [SEQ ID NO: 75] :: >128
Non-KFKWPW-NH2 (Nonanoyl-KFKWPW-NH2; SMILES CCCCCCCCC(=O)N[C@@H](CCCCN)C(=O)N[C@@H](Cc1ccccc1)C(=O)N[C@@H](CCCCN)C(=O)N[C@@H](Cc1c[nH]c2ccccc12)C(=O)N1CCC[C@H]1C(=O)N[C@@H](Cc1c[nH]c2ccccc12)C(N)=O) [SEQ ID NO: 70] :: 16
Ste-KFKWPW-NH2 (Stearoyl-KFKWPW-NH2; SMILES CCCCCCCCCCCCCCCCCC(=O)N[C@@H](CCCCN)C(=O)N[C@@H](Cc1ccccc1)C(=O)N[C@@H](CCCCN)C(=O)N[C@@H](Cc1c[nH]c2ccccc12)C(=O)N1CCC[C@H]1C(=O)N[C@@H](Cc1c[nH]c2ccccc12)C(N)=O) [SEQ ID NO: 74] :: >128
Tri-KFKWPW-NH2 (Tridecanoyl-KFKWPW-NH2; SMILES CCCCCCCCCCCCC(=O)N[C@@H](CCCCN)C(=O)N[C@@H](Cc1ccccc1)C(=O)N[C@@H](CCCCN)C(=O)N[C@@H](Cc1c[nH]c2ccccc12)C(=O)N1CCC[C@H]1C(=O)N[C@@H](Cc1c[nH]c2ccccc12)C(N)=O) [SEQ ID NO: 80] :: 32-64
Und-KFKWPW-NH2 (Undecanoyl-KFKWPW-NH2; SMILES CCCCCCCCCCC(=O)N[C@@H](CCCCN)C(=O)N[C@@H](Cc1ccccc1)C(=O)N[C@@H](CCCCN)C(=O)N[C@@H](Cc1c[nH]c2ccccc12)C(=O)N1CCC[C@H]1C(=O)N[C@@H](Cc1c[nH]c2ccccc12)C(N)=O) [SEQ ID NO: 79] :: 8-16

I am curious: what MIC, lipid length SAR value has been reported for Myr-KFKWPW-NH2 (Myristoyl-KFKWPW-NH2; SMILES CCCCCCCCCCCCCC(=O)N[C@@H](CCCCN)C(=O)N[C@@H](Cc1ccccc1)C(=O)N[C@@H](CCCCN)C(=O)N[C@@H](Cc1c[nH]c2ccccc12)C(=O)N1CCC[C@H]1C(=O)N[C@@H](Cc1c[nH]c2ccccc12)C(N)=O) [SEQ ID NO: 77] ?
>128
